Hey, just so you know, these numbers are from patent US20080200403A1.

- Tested on: IL-1α
- test_protocol: Inhibition of IL-1 production by stimulated human peripheral blood leukocytes in vitro
- Type: cell-based
- measurement_setup: Homo sapiens, Leukocyte, PBL, PMA stimulated, compound 50 μM; read-out: Percentage of inhibition of IL-1α production
I'd be grateful if you could share measured inhibition at 50 µM for these entries.
Form entry: enter the amount, then its unit.

Identify measured inhibition at 50 µM obtained with IL-1α for CC[C@H]1OC(=O)[C@H](C)[C@@H](O[C@H]2C[C@@](C)(OC)[C@@H](O)[C@H](C)O2)[C@H](C)[C@@H](O[C@@H]2O[C@H](C)C[C@H](N(C)C)[C@H]2O)[C@](C)(OC)C[C@@H](C)C(=O)[C@H](C)[C@@H](O)[C@]1(C)O [Clarithromycin, clarithromycin, reference compound] .
33%

Identify measured inhibition at 50 µM obtained with IL-1α for CC[C@H]1OC(=O)[C@H](C)[C@@H](O[C@H]2C[C@@](C)(OC)[C@@H](O)[C@H](C)O2)[C@H](C)[C@@H](O[C@@H]2O[C@H](C)C[C@H](N(C)C)[C@H]2O)[C@](C)(O)C[C@@H](C)CN(C(=S)Nc2ccccc2F)[C@H](C)[C@@H](O)[C@]1(C)O .
14%

Identify measured inhibition at 50 µM obtained with IL-1α for CC[C@H]1OC(=O)[C@H](C)[C@@H](O[C@H]2C[C@@](C)(OC)[C@@H](O)[C@H](C)O2)[C@H](C)[C@@H](O[C@@H]2O[C@H](C)C[C@H](N(C)C)[C@H]2O)[C@](C)(O)C[C@@H](C)CN(C(=S)Nc2cccc(C(F)(F)F)c2)[C@H](C)[C@@H](O)[C@]1(C)O .
92%

Identify measured inhibition at 50 µM obtained with IL-1α for CC[C@H]1OC(=O)[C@H](C)[C@@H](O)[C@H](C)[C@@H](O[C@@H]2O[C@H](C)C[C@H](N(C)C)[C@H]2O)[C@](C)(O)C[C@@H](C)CN(C(=O)Nc2cccc(C(F)(F)F)c2)[C@H](C)[C@@H](O)[C@]1(C)O .
32%

Identify measured inhibition at 50 µM obtained with IL-1α for CC[C@H]1OC(=O)[C@H](C)[C@@H](O[C@H]2C[C@@](C)(OC)[C@@H](O)[C@H](C)O2)[C@H](C)[C@@H](O[C@@H]2O[C@H](C)C[C@H](N(C)C)[C@H]2O)[C@](C)(O)C[C@@H](C)CN(C)[C@H](C)[C@@H](O)[C@]1(C)O [Azithromycin, azithromycin, reference compound] .
0%

Identify measured inhibition at 50 µM obtained with IL-1α for CC[C@H]1OC(=O)[C@H](C)[C@@H](O[C@H]2C[C@@](C)(OC)[C@@H](O)[C@H](C)O2)[C@H](C)[C@@H](O[C@@H]2O[C@H](C)C[C@H](N(C)C)[C@H]2O)[C@](C)(O)C[C@@H](C)CN(C(=S)Nc2cccc(Br)c2)[C@H](C)[C@@H](O)[C@]1(C)O .
100%
